SYSTEM_NAME: HLA-DR DRB1*0802 (DR8) (Homo sapiens, UniProt P01903+P01911, A100R/A103L/A169T/F76Y/H45Y/I96F/K41T/L162R/M171V/P40S/Q125H/Q178H/Q39Y/Q99D/R218S/R42G/S66Y/V115G/W38E)
TEST_DESCRIPTION: biochemical
Format: binding
No end group written: not given here.
REPORTED_ENDPOINT: IC50 (µM)

> print(dat)
               macromolecule.sequence  reported.endpoint  qualifier.operator  reported.value
 1                    YLVCGERGFLYTPKT               IC50                   >            54.4
 2                    ICLLLIQSWLEPVQF               IC50                   >            33.3
 3                    GIVEQTTTSITSLYQ               IC50                   >            54.4
 4                    YLVTGERGFFYTDKT               IC50                   >            25.8
 5                    RPGLLGASVLGLDDI               IC50                   >            61.2
 6                    SFLQNPQTSLTFSES               IC50                   >            33.3
 7                    EVFFQRLGIASGRAR               IC50                   =          0.0063
 8  NMSLLKHQSLRPDED [NMSLLKHQSLRPDED]               IC50                   =            26.5
 9                   FLRIVQTRSVEGSTGF               IC50                   =           0.445
10                    FENLVAENVKPPKVD               IC50                   >              25
11                    GKVFRGNKVKNAQLA               IC50                   =            4.12
12                    GNEIFNTSLFEPPPP               IC50                   >             163
13                    ISLLLIQSWLEPVQF               IC50                   >            33.3
14                    ALLIIPPKIHISIEL               IC50                   =              12
15                   KCEFQDAYVILLSEKK               IC50                   =           0.489
16                    YEALIKLLPFSKRIR               IC50                   =            0.18
17                    YLVCGERGFFYTPKT               IC50                   >            54.4
18                    GVIYIMIISKKMMRK               IC50                   =           0.137
